tested on: CCRIS mutagenicity, Ames/micronucleus/aberration tests; test: CCRIS mutagenicity studies; conditions: Test System: AMES SALMONELLA TYPHIMURIUM; Strain/Indicator: TA1538; Metabolic Activation: RAT, LIVER, S-9; Method: STANDARD PLATE
Activity calls are given as the source filed them. How the calls were made is not given here.
Classes used: active, inactive

>>> print(df.to_string())
                           substance_smiles  assigned_label
0  C[C@H]1CCCC(=O)CCC/C=C/c2cc(O)cc(O)c2C(=O)O1        inactive
1                          CCN(N=O)c1ccccc1        inactive
2                         COc1ccc(N)c(OC)c1        inactive
3                    Nc1ncc([N+](=O)[O-])s1        inactive
4  C[C@H]1CCC[C@H](O)CCCCCc2cc(O)cc(O)c2C(=O)O1        inactive
5                            COC1=CC=CC=CC1          active
6                 CC(=O)Nc1ccc(C(=O)CCl)cc1        inactive

###

system: CCRIS mutagenicity, Ames/micronucleus/aberration tests; assay: CCRIS mutagenicity studies; details: Test System: MOUSE LYMPHOMA; Strain/Indicator: L5178Y (TK+/TK-); Metabolic Activation: RAT, LIVER, S-9, AROCLOR 1254; Method: SUSPENSION/PLATE
Active and inactive are the calls of the source. No rule for the calls is given here.
Classes used: y (active), n (inactive)

In [3]: df
Out[3]:
                           substance_smiles  assigned_label
0                    CC1=CC(O)=NS(=O)(=O)O1               n
1  O=C(/C=C/c1ccc([N+](=O)[O-])cc1)c1ccccc1               n
2    CCN(CC)CCNc1ccc(CO)c2sc3ccccc3c(=O)c12               y
3                 Nc1ccc(N=Nc2ccccc2)c(N)n1               y
4                               N#Cc1ccccc1               n
5  CCN(CC)c1ccc2c(-c3ccc(S(=O)(=O)O)cc3S(=O)(=O)[O-])c3ccc(=[N+](CC)CC)cc-3oc2c1               y

###

system: CCRIS mutagenicity, Ames/micronucleus/aberration tests; assay: CCRIS mutagenicity studies; conditions: Test System: AMES SALMONELLA TYPHIMURIUM; Strain/Indicator: TA100; Metabolic Activation: NONE; Method: STANDARD PLATE
Activity calls are given as the source filed them. No rule for the calls is given here.
Classes used: class 1 (active), class 0 (inactive)

                                    compound                            assayed_target  assigned_label
 0                        Clc1ncnc2nc[nH]c12  CCRIS mutagenicity, Ames/micronucleus/aberration tests         class 1
 1             CC1(C)C=C(C(=O)O)C(C)(C)N1[O]  CCRIS mutagenicity, Ames/micronucleus/aberration tests         class 0
 2   C#CC(OC(=O)NC1CCCCC1)(c1ccccc1)c1ccccc1  CCRIS mutagenicity, Ames/micronucleus/aberration tests         class 1
 3        Cc1cc2nc3ccc(=[N+](C)C)cc-3sc2cc1N  CCRIS mutagenicity, Ames/micronucleus/aberration tests         class 0
 4  CCCCC(CC)COC(=O)c1ccccc1C(=O)O (stereo not drawn)  CCRIS mutagenicity, Ames/micronucleus/aberration tests         class 0
 5                CC(=O)OCCCCONC(=O)c1ccccc1  CCRIS mutagenicity, Ames/micronucleus/aberration tests         class 1
 6  COC(=O)C1CSC2C(Cl)=C(Cl)C(=O)N12 (stereo not drawn)  CCRIS mutagenicity, Ames/micronucleus/aberration tests         class 1
 7  O=c1[nH]c(=O)n([C@H]2C[C@H](O)[C@@H](CO)O2)cc1Br  CCRIS mutagenicity, Ames/micronucleus/aberration tests         class 0
 8      O=c1cc(-c2ccc(O)cc2)oc2cc(O)cc(O)c12  CCRIS mutagenicity, Ames/micronucleus/aberration tests         class 0
 9  CCOc1ccc(C(C)(C)C)cc1NC(=O)C(=O)Nc1ccccc1CC  CCRIS mutagenicity, Ames/micronucleus/aberration tests         class 0
10                  CCCOS(=O)(=O)c1ccc(C)cc1  CCRIS mutagenicity, Ames/micronucleus/aberration tests         class 1
11                                 S=C1NCCN1  CCRIS mutagenicity, Ames/micronucleus/aberration tests         class 0
12  CC(C)CC(C)Nc1ccc(Nc2ccccc2)cc1 (stereo not drawn)  CCRIS mutagenicity, Ames/micronucleus/aberration tests         class 0
